Provide the reported neutralization IC50 of each item.
target_system: HIV-1 Env of strain TRO.11 (HIV-1)
experimental_protocol: cell-based or functional assay
One number for each entry, in µg/mL.

Use the examples below as a reference point.
• NIH45-46 G54L IgG (antibody, name in Kabat numbering, V domains shown) VH: QVRLSQSGGQMKKPGESMRLSCRASGYEFLNCPINWIRLAPGRRPEWMGWLKPRLGAVNYARKFQGRVTMTRDVYSDTAFLELRSLTSDDTAVYFCTRGKYCTARDYYNWDFEHWGRGAPVTVSS VL: EIVLTQSPATLSLSPGETAIISCRTSQSGSLAWYQQRPGQAPRLVIYSGSTRAAGIPDRFSGSRWGADYNLSISNLESGDFGVYYCQQYEFFGQGTKVQVDI = 0.3
• NIH45-46^G54Y IgG (antibody, name in Kabat numbering, V domains shown) VH: QVRLSQSGGQMKKPGESMRLSCRASGYEFLNCPINWIRLAPGRRPEWMGWLKPRYGAVNYARKFQGRVTMTRDVYSDTAFLELRSLTSDDTAVYFCTRGKYCTARDYYNWDFEHWGRGAPVTVSS VL: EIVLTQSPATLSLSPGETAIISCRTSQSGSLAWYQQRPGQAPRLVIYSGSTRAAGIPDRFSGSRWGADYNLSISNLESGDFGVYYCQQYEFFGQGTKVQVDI = 0.1
• NIH45-46 G54M IgG (antibody, name in Kabat numbering, V domains shown) VH: QVRLSQSGGQMKKPGESMRLSCRASGYEFLNCPINWIRLAPGRRPEWMGWLKPRMGAVNYARKFQGRVTMTRDVYSDTAFLELRSLTSDDTAVYFCTRGKYCTARDYYNWDFEHWGRGAPVTVSS VL: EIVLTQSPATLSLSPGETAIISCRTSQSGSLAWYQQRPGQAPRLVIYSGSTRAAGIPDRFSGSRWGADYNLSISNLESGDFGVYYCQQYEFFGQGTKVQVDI = 0.3
• NIH45-46 G54H IgG (antibody, name in Kabat numbering, V domains shown) VH: QVRLSQSGGQMKKPGESMRLSCRASGYEFLNCPINWIRLAPGRRPEWMGWLKPRHGAVNYARKFQGRVTMTRDVYSDTAFLELRSLTSDDTAVYFCTRGKYCTARDYYNWDFEHWGRGAPVTVSS VL: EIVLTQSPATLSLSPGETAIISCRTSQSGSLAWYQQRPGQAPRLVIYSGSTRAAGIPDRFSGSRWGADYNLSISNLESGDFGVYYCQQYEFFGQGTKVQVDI = 0.2

Now for another entry.
Prompt line: // lookup neutralization IC50 for NIH45-46^G54F IgG (antibody, name in Kabat numbering, V domains shown) VH: QVRLSQSGGQMKKPGESMRLSCRASGYEFLNCPINWIRLAPGRRPEWMGWLKPRFGAVNYARKFQGRVTMTRDVYSDTAFLELRSLTSDDTAVYFCTRGKYCTARDYYNWDFEHWGRGAPVTVSS VL: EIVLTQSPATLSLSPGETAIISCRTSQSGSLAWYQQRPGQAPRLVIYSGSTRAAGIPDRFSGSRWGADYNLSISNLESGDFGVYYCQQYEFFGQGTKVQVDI
Response line: 0.08

Sourced from patent US20130209454A1
